Provenance of the data: paper PMC3914206

Below, each entry is listed alongside its reported KINOMEscan: RIPK5.
Molecular target: panel of 442 kinases (Homo sapiens)
Construct: purchased KINOMEscan
Sequence (Q6XUX3 whole entry): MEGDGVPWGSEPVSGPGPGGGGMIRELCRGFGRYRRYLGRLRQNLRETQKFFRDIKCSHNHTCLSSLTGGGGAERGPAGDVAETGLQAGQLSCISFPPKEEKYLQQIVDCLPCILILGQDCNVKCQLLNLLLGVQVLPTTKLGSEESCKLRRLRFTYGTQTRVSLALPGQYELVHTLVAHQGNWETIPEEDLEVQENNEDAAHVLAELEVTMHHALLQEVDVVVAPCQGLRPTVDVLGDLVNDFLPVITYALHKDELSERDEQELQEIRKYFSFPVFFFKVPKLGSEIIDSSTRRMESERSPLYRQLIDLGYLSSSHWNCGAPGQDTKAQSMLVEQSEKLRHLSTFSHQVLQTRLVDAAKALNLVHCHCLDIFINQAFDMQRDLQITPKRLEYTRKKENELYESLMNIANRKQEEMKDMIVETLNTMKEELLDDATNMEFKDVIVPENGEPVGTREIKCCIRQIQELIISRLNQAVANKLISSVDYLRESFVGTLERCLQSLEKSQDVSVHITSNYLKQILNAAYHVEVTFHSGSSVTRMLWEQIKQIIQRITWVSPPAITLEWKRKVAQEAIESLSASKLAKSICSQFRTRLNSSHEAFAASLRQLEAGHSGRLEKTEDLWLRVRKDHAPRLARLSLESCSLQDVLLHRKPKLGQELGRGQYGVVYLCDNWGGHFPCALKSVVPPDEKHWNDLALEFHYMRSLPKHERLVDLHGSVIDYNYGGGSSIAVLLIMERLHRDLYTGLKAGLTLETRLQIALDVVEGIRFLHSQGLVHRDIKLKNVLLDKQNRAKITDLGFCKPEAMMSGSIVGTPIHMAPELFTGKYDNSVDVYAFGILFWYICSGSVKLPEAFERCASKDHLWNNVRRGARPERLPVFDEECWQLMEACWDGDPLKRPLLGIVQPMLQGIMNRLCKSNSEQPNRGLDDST
Format: binding
Conditions: Compound Concentration 10 µM
// return just the number, without any unit appended

Solved cases below.
>  <STRUCTURE AS SMILES>
COc1cc(C(=O)N2CCC(N3CCN(C)CC3)CC2)ccc1Nc1ncc2c(n1)N1CCc3cccc(c31)C(=O)N2C

>  <ASSAY READOUT>
KINOMEscan: RIPK5

>  <TEST VALUE>
24

$$$$
>  <STRUCTURE AS SMILES>
COc1cc(C(=O)N2CCC(N3CCN(C)CC3)CC2)ccc1Nc1ncc2c(n1)N(C1CCCC1)c1ccccc1C(=O)N2C

>  <ASSAY READOUT>
KINOMEscan: RIPK5

>  <TEST VALUE>
4.9

$$$$
>  <STRUCTURE AS SMILES>
COc1cc(C(=O)N2CCC(N3CCN(C)CC3)CC2)ccc1Nc1ncc2c(n1)N(C)c1ccccc1C(=O)N2C

>  <ASSAY READOUT>
KINOMEscan: RIPK5

>  <TEST VALUE>
16

$$$$

input: Tell me reported KINOMEscan: RIPK5 for CCOc1cc(C(=O)N2CCC(N3CCN(C)CC3)CC2)ccc1Nc1ncc2c(n1)N(C1CCCC1)c1ccccc1C(=O)N2C , tested with panel of 442 kinases (Homo sapiens).
output: 16

----------
Target: ERK5 (Homo sapiens)
Sequence (Q13164 whole entry): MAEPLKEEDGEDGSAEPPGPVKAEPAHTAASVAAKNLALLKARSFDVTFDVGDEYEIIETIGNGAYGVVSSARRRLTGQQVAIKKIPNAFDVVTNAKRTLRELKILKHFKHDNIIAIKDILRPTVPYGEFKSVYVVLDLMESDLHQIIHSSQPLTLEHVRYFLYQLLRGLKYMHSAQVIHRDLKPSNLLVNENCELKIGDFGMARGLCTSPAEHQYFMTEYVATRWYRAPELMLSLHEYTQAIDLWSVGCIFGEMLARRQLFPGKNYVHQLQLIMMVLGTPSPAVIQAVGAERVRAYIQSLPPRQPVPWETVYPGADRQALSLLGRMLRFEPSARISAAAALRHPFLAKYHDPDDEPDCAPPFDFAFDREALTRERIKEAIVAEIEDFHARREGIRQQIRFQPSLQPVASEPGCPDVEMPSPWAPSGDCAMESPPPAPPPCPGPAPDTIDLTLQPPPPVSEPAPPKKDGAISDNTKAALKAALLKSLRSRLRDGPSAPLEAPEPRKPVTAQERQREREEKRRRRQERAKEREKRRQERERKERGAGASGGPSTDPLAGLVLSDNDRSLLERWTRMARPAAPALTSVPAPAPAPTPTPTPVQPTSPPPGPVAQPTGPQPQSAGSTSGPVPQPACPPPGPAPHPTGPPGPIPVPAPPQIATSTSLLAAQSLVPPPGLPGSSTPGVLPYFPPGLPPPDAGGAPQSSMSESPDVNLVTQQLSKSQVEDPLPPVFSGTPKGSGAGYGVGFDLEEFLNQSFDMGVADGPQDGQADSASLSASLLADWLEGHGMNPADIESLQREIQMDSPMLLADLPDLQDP
Assay: ERK5 autophosphorylation assay (EGF-stimulated, mobility shift immunoblot)
Details: inhibition of EGF-stimulated autophosphorylation of ERK5 in HeLa cells; read-out: Cellular EC50 (ERK5)
ASSAY READOUT: pEC50
// pEC50: -log10(molar conc.)

Solved cases below.
>  <STRUCTURE AS SMILES>
COc1cc(N2CCN(C)CC2)ccc1Nc1ncc2c(n1)N(C)c1ccc(F)cc1C(=O)N2C

>  <ASSAY READOUT>
pEC50

>  <TEST VALUE>
5.88

$$$$
>  <STRUCTURE AS SMILES>
COc1cc(N2CCN(C)CC2)ccc1Nc1ncc2c(n1)N(C1CCCC1)c1ccccc1C(=O)N2C

>  <ASSAY READOUT>
pEC50

>  <TEST VALUE>
6.70

$$$$
>  <STRUCTURE AS SMILES>
COc1cc(N2CCC(O)CC2)ccc1Nc1ncc2c(n1)N(C)c1ccccc1C(=O)N2C

>  <ASSAY READOUT>
pEC50

>  <TEST VALUE>
6.62

$$$$
>  <STRUCTURE AS SMILES>
CN1CCC(Nc2ncc3c(n2)N(C)c2ccccc2C(=O)N3C)CC1

>  <ASSAY READOUT>
pEC50

>  <TEST VALUE>
5.39

$$$$
>  <STRUCTURE AS SMILES>
CCN1c2ccccc2C(=O)N(C)c2cnc(Nc3ccc(N4CCN(C)CC4)cc3OC)nc21

>  <ASSAY READOUT>
pEC50

>  <TEST VALUE>
6.70

$$$$
>  <STRUCTURE AS SMILES>
COc1cc(N2CCN(C)CC2)ccc1Nc1ncc2c(n1)N(C(C)C)c1ccccc1C(=O)N2C

>  <ASSAY READOUT>
pEC50

>  <TEST VALUE>
6.64

$$$$

input: Consider the compound CN1C(=O)c2ccccc2N(C)c2nc(Nc3ccc(S(N)(=O)=O)cc3)ncc21 and give its measured pEC50.
output: 6.51

input: Thanks! And COc1cc(C(=O)NC2CCN(C)CC2)ccc1Nc1ncc2c(n1)N(C)c1ccccc1C(=O)N2C ?
output: 6.49
